- experimentalSystem: T1, soluble hG-CSFR: amino acids 25-335 of Homo sapiens G-CSFR with mutations C78A, C163S and C228S and a … (Homo sapiens, UniProt Q99062 25-335)
- T1 chain: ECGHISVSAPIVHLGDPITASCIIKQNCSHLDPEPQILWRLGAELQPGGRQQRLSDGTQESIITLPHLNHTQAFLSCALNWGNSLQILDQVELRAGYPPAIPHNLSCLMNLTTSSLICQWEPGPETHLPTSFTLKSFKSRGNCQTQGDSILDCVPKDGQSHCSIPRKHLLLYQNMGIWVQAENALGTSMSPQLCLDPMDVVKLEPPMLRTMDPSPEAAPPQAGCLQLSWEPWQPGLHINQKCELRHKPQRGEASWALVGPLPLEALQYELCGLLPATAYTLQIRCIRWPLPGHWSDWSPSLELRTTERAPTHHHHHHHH
- protocolDescription: SPR (Biacore), mAb captured by anti-human IgG, soluble hG-CSFR injected
Each record here notes measured Kd.
Kindly provide the numeric value in pM only, without the unit symbol.

Check out these entries, answers already filled in.
- binder: "C1.2G-986 (antibody, human IgG4, V domains shown, also called antibody 986) VH: EVQLLESGGGLVQPGGSLRLSCAASGFTFSLYWMGWVRQAPGKGLEWVSSISSSGGVTPYADSVKGRFTISRDNSKNTLYLQMNSLRAEDTAVYYCAKLGELGFFQEWGQGTLVTVSS VL: DIQMTQSPSSLSASVGDRVTITCRASQGISSYLNWYQQKPGKAPKLLIYYASNLQNGVPSRFSGSGSGTDFTLTISSLQPEDFATYYCQQSYAYPQQFGGGTKVEIK"
  unitAbbreviation: "pM"
  Kd: 91.1
- binder: "C1.2G-852 (antibody, human IgG4, V domains shown, LCDR3 wt (VL of C1.2G); also called antibody 852) VH: EVQLLESGGGLVQPGGSLRLSCAASGFTFSLYWMGWVRQAPGKGLEWVSSISSSGGVTPYADSVKGRFTISRDNSKNTLYLQMNSLRAEDTAVYYCAKLGELGHSLAWGQGTLVTVSS VL: DIQMTQSPSSLSASVGDRVTITCRASQGISSYLNWYQQKPGKAPKLLIYYASNLQNGVPSRFSGSGSGTDFTLTISSLQPEDFATYYCQQSYSTPLTFGGGTKVEIK"
  unitAbbreviation: "pM"
  Kd: 292

GET /value?item= C1.2G-802 (antibody, human IgG4, V domains shown, HCDR3 wt (VH of C1.2G); also called antibody 802) VH: EVQLLESGGGLVQPGGSLRLSCAASGFTFSLYWMGWVRQAPGKGLEWVSSISSSGGVTPYADSVKGRFTISRDNSKNTLYLQMNSLRAEDTAVYYCAKLGELGWFDPWGQGTLVTVSS VL: DIQMTQSPSSLSASVGDRVTITCRASQGISSYLNWYQQKPGKAPKLLIYYASNLQNGVPSRFSGSGSGTDFTLTISSLQPEDFATYYCHFSMQYPLTFGGGTKVEIK &field=Kd returns 111
